# Test system: SR
# ASSAY_NOTES: NCI tumour cell line growth inhibition, 48 h
Activity calls are given as the source filed them. Rule as the data show it: active = GI50 up to about 1.1 µM and inactive = higher.
Please answer using one outcome listed in Yes (active), No (inactive)

Could you kindly confirm the outcome this assay logged for CC[C@H]1CN2CCc3cc(OC)c(OC)cc3[C@@H]2C[C@@H]1C[C@H]1NCCc2c1[nH]c1ccc(O)cc21 ?
Yes

What is the recorded call for this compound in the test? CCOC(=O)/C=C/[C@@H](CC)O[Si](C(C)C)(C(C)C)C(C)C
No

What call does the record list for CC1(C)CC[C@]2(C(=O)O)CC[C@]3(C)C(=CC[C@@H]4[C@@]5(C)CC[C@H](OC6OC(CO)C(O)C(O)C6OC6OC(CO)C(O)C(O)C6O)C(C)(C)[C@@H]5CC[C@]43C)[C@@H]2C1 (some centres undefined) ?
No

Fill in: this test's call for CC12CCC(C(=O)OC1=O)C2(C)C (centres undefined) is ___
Yes

Record lookup: outcome of this test for CC(=O)NNC(=S)N/C=C1/C(=O)Oc2ccccc2C1=O ?
No

For CC(C)=CCC[C@@H](C)C1=C(Nc2ccccc2)C(=O)C(C)=C(O)C1=O , what call appears in the results of this test?
Yes

I would be grateful if you could indicate the recorded call for NNC(=O)CC(=O)Nc1cccc(Cl)c1 .
No

Would you mind telling me which call this test gave CC(SC(=S)N1CCOCC1)C(=O)Nc1nnc(-c2ccccc2)o1 (centres undefined) ?
No

Please let me know the test result on file for C(=N\c1cnc2ccccc2c1)/c1ccc2ccccc2n1 .
No
